Experiment: Rat PK study, single i.g. dose
Format: in vivo
Conditions: female, SD, plasma, PO, 10 mg/kg, read-out: Rat PO (10 mpk) AUC last
# Lookup of reported AUC(0-t) keyed by entry

- Smiles string: "C=CC(=O)N1C[C@H](C)N(c2nc(=O)n(-c3c(C4CC4)ncnc3C3CC3)c3nc(-c4c(N)cccc4F)c(Cl)cc23)C[C@H]1C"
  Unit symbol: "µM·h"
  AUC(0-t): 3.8
- Smiles string: "C=CC(=O)N1C[C@H](C)N(c2nc(=O)n(-c3c(C4CC4)ncnc3C3CC3)c3nc(-c4c(N)cccc4F)c(F)cc23)C[C@H]1C"
  Unit symbol: "µM·h"
  AUC(0-t): 4.3

----------
# Lookup of reported log10 of IC50 keyed by entry
System: Lung cancer cell line NCI-H358 containing KRas G12C mutation
Experiment: Assay for cell proliferation (Cell-titer Glo, 5 days)
Type: cell-based, human
Conditions: Homo sapiens, NCI-H358, 120 h, NCI-H358, 5 days, Cell-titer Glo; read-out: IC50 (nM), Inhibition of NCI-H358 Cell Proliferation
Method: One hundred fifty microliter (150 μL) of media containing 2000 cells per well were seeded into each well of a 96-well culture plate and left to attach overnight in a 37° C. incubator with 5% CO2. Diluted compounds of 0.75 μL for each well were added by liquid handler at a final concentration of 0.5% DMSO. Cells were treated for 5 days in the incubator. Cell-titer Glo (CTG) kit (Promega) was used to assess cell proliferation. […]
Measured attribute: log10 of IC50 (log10 of the value in nM)

- Compound: "C=CC(=O)N1[C@H](C)CN(c2nc(=O)n(-c3c(C4CC4)ncnc3C3CC3)c3nc(-c4c(N)cccc4F)c(F)cc23)C[C@@H]1C [Compound 47]"
  Tested system: "Lung cancer cell line NCI-H358 containing KRas G12C mutation"
  log10 of IC50: 1.38
- Compound: "C=CC(=O)N1C[C@H](C)N(c2nc(=O)n(-c3c(C(C)C)ncnc3C(C)C)c3nc(-c4c(N)cccc4F)c(Cl)cc23)C[C@H]1C"
  Tested system: "Lung cancer cell line NCI-H358 containing KRas G12C mutation"
  log10 of IC50: 0.20
- Compound: "C=CC(=O)N1C[C@H](C)N(c2nc(=O)n(-c3c(F)cc4c(ncn4C)c3C(C)C)c3nc(-c4c(N)cccc4F)c(F)cc23)C[C@H]1C (atropisomer, axis not shown) [Compound 145]"
  Tested system: "Lung cancer cell line NCI-H358 containing KRas G12C mutation"
  log10 of IC50: 0.15
- Compound: "C=CC(=O)N1C[C@H](C)N(c2nc(=O)n(-c3c(C(C)C)nc(C)nc3C(C)C)c3nc(-c4ccccc4F)c(F)cc23)C[C@H]1C [Compound 49]"
  Tested system: "Lung cancer cell line NCI-H358 containing KRas G12C mutation"
  log10 of IC50: 1.40
- Compound: "C=CC(=O)N1CCN(c2nc(=O)n(-c3c(C4CC4)ncnc3C3CC3)c3nc(-c4c(N)cccc4F)c(F)cc23)[C@@H](C)C1 [Compound 41]"
  Tested system: "Lung cancer cell line NCI-H358 containing KRas G12C mutation"
  log10 of IC50: 0.84
- Compound: "C=CC(=O)N1C[C@H](C)N(c2nc(=O)n(-c3c(C4CC4)nc(N4CCN(C)CC4)nc3C3CC3)c3nc(-c4c(O)cccc4F)c(F)cc23)C[C@H]1C [Compound 101]"
  Tested system: "Lung cancer cell line NCI-H358 containing KRas G12C mutation"
  log10 of IC50: 1.41
- Compound: "C=CC(=O)N1CCN(c2nc(=O)n(-c3c(C)nc4c(ncn4C)c3C(C)C)c3nc(-c4c(O)cccc4F)c(F)cc23)[C@@H](C)C1 (single isomer, unassigned) [Compound 163]"
  Tested system: "Lung cancer cell line NCI-H358 containing KRas G12C mutation"
  log10 of IC50: 1.65
- Compound: "C=CC(=O)N1CCN(c2nc(=O)n(-c3c(C4CC4)nc(OC)nc3C3CC3)c3nc(-c4ccccc4F)c(F)cc23)[C@@H](C)C1 [Compound 61]"
  Tested system: "Lung cancer cell line NCI-H358 containing KRas G12C mutation"
  log10 of IC50: 1.85
- Compound: "C=CC(=O)N1CCN(c2nc(=O)n(-c3c(C(C)C)nc(N)nc3C(C)C)c3nc(-c4ccccc4F)c(Cl)cc23)[C@@H](C)C1 [Compound 6]"
  Tested system: "Lung cancer cell line NCI-H358 containing KRas G12C mutation"
  log10 of IC50: 0.69
- Compound: "C=CC(=O)N1CCN(c2nc(=O)n(-c3c(C4CC4)nc(OCCN(C)C)nc3C3CC3)c3nc(-c4ccccc4F)c(F)cc23)[C@@H](C)C1 [Compound 21]"
  Tested system: "Lung cancer cell line NCI-H358 containing KRas G12C mutation"
  log10 of IC50: 1.48
- Compound: "C=CC(=O)N1C[C@H](C)N(c2nc(=O)n(-c3c(C4CC4)nc(N)nc3C3CC3)c3nc(-c4c(O)cccc4F)c(F)cc23)C[C@H]1C [Compound 113]"
  Tested system: "Lung cancer cell line NCI-H358 containing KRas G12C mutation"
  log10 of IC50: 1.69

----------
Test system: Lung cancer cell line NCI-H358 containing KRas G12C mutation
Assay: Assay for cell proliferation (Cell-titer Glo, 5 days)
Format: cell-based, human
Conditions: Homo sapiens, NCI-H358, 120 h, NCI-H358, 5 days, Cell-titer Glo; read-out: IC50 (nM), Inhibition of NCI-H358 Cell Proliferation

- Smiles string: "C=CC(=O)N1CCN(c2nc(=O)n(-c3c(C4CC4)nc(C)nc3C3CC3)c3nc(-c4c(N)cccc4F)c(F)cc23)[C@@H](C)C1"
  IC50: "11.4 nM"
- Smiles string: "C=CC(=O)N1[C@H](C)CN(c2nc(=O)n(-c3c(C4CC4)nc(C)nc3C3CC3)c3nc(-c4c(O)cccc4F)c(F)cc23)C[C@@H]1C"
  IC50: "74.3 nM"
- Smiles string: "C=CC(=O)N1CCN(c2nc(=O)n(-c3c(C(C)C)cc4scnc4c3C)c3nc(-c4ccccc4F)c(Cl)cc23)[C@@H](C)C1"
  IC50: "19.9 nM"

----------
Tested on: Lung cancer cell line NCI-H358 containing KRas G12C mutation
Assay: Assay for cell proliferation (Cell-titer Glo, 5 days)
Format: cell-based, human
Settings: Homo sapiens, NCI-H358, 120 h, NCI-H358, 5 days, Cell-titer Glo; read-out: IC50 (nM), Inhibition of NCI-H358 Cell Proliferation
# Lookup of reported IC50 keyed by entry

- Compound: "C=CC(=O)N1CCN(c2nc(=O)n(-c3c(C(C)C)nc(N(C)S(C)(=O)=O)nc3C(C)C)c3nc(-c4ccccc4F)c(F)cc23)[C@@H](C)C1 [Compound 56]"
  Tested system: "Lung cancer cell line NCI-H358 containing KRas G12C mutation"
  IC50 [nM]: 27
- Compound: "C=CC(=O)N1C[C@H](C)N(c2nc(=O)n(-c3c(C4CC4)nc(C)nc3C3CC3)c3nc(-c4cccc5[nH]nc(N)c45)c(F)cc23)C[C@H]1C [Compound 114]"
  Tested system: "Lung cancer cell line NCI-H358 containing KRas G12C mutation"
  IC50 [nM]: 497
- Compound: "C=CC(=O)N1C[C@H](C)N(c2nc(=O)n(-c3c(C(C)C)ncnc3C(C)C)c3nc(-c4ccccc4F)c(F)cc23)C[C@H]1C"
  Tested system: "Lung cancer cell line NCI-H358 containing KRas G12C mutation"
  IC50 [nM]: 19
- Compound: "C=CC(=O)N1C[C@H](C)N(c2nc(=O)n(-c3c(C(C)C)ncnc3C(C)C)c3nc(-c4ccccc4F)c(Cl)cc23)C[C@H]1C"
  Tested system: "Lung cancer cell line NCI-H358 containing KRas G12C mutation"
  IC50 [nM]: 4
- Compound: "C=CC(=O)N1CCN(c2nc(=O)n(-c3c(C4CC4)nc(N)nc3C3CC3)c3nc(-c4ccccc4F)c(F)cc23)[C@@H](C)C1 [Compound 30]"
  Tested system: "Lung cancer cell line NCI-H358 containing KRas G12C mutation"
  IC50 [nM]: 52.7
- Compound: "C=CC(=O)N1CCN(c2nc(=O)n(-c3c(C4CC4)nc(C)nc3C3CC3)c3nc(-c4ccccc4F)c(F)cc23)[C@@H](C)C1 [Compound 27]"
  Tested system: "Lung cancer cell line NCI-H358 containing KRas G12C mutation"
  IC50 [nM]: 69.9
- Compound: "C=CC(=O)N1CCN(c2nc(=O)n(-c3c(C4CC4)nc(N4CC(N(C)C)C4)nc3C3CC3)c3nc(-c4ccccc4F)c(F)cc23)[C@@H](C)C1 [Compound 34]"
  Tested system: "Lung cancer cell line NCI-H358 containing KRas G12C mutation"
  IC50 [nM]: 58.3
- Compound: "C=CC(=O)N1CCN(c2nc(=O)n(-c3c(C(C)C)nc(C)nc3C(C)C)c3nc(-c4ccccc4F)c(F)cc23)[C@@H](C)C1 [Compound 48]"
  Tested system: "Lung cancer cell line NCI-H358 containing KRas G12C mutation"
  IC50 [nM]: 25.8
- Compound: "C=CC(=O)N1CCN(c2nc(=O)n(-c3c(C(C)C)nc4ocnc4c3C)c3nc(-c4ccccc4F)c(Cl)cc23)[C@@H](C)C1 [Compound 117]"
  Tested system: "Lung cancer cell line NCI-H358 containing KRas G12C mutation"
  IC50 [nM]: 12.9
- Compound: "C=CC(=O)N1C[C@H](C)N(c2nc(=O)n(-c3c(C4CC4)ncnc3C3CC3)c3nc(-c4c(O)cccc4F)c(F)cc23)C[C@H]1C [Compound 43]"
  Tested system: "Lung cancer cell line NCI-H358 containing KRas G12C mutation"
  IC50 [nM]: 15.5
- Compound: "C=CC(=O)N1CCN(c2nc(=O)n(-c3c(C(C)C)nc(OC)nc3C(C)C)c3nc(-c4ccccc4F)c(Cl)cc23)[C@@H](C)C1 [Compound 8]"
  Tested system: "Lung cancer cell line NCI-H358 containing KRas G12C mutation"
  IC50 [nM]: 11.2
- Compound: "C=CC(=O)N1C[C@H](C)N(c2nc(=O)n(-c3c(C4CC4)nc(N4CCNCC4)nc3C3CC3)c3nc(-c4c(O)cccc4F)c(F)cc23)C[C@H]1C [Compound 100]"
  Tested system: "Lung cancer cell line NCI-H358 containing KRas G12C mutation"
  IC50 [nM]: 14.1
- Compound: "C=CC(=O)N1[C@H](C)CN(c2nc(=O)n(-c3c(C4CC4)ncnc3C3CC3)c3nc(-c4c(O)cccc4F)c(F)cc23)C[C@@H]1C [Compound 46]"
  Tested system: "Lung cancer cell line NCI-H358 containing KRas G12C mutation"
  IC50 [nM]: 81.5
- Compound: "C=CC(=O)N1C[C@H](C)N(c2nc(=O)n(-c3c(C(C)C)nc(N4CCNCC4)nc3C(C)C)c3nc(-c4c(O)cccc4F)c(F)cc23)C[C@H]1C [Compound 95]"
  Tested system: "Lung cancer cell line NCI-H358 containing KRas G12C mutation"
  IC50 [nM]: 14.6
- Compound: "C=CC(=O)N1CCN(c2nc(=O)n(-c3c(C(C)C)nc(C)nc3C(C)C)c3nc(-c4ccccc4F)c(Cl)cc23)[C@@H](C)C1 [Compound 9]"
  Tested system: "Lung cancer cell line NCI-H358 containing KRas G12C mutation"
  IC50 [nM]: 4.1
- Compound: "C=CC(=O)N1CCN(c2nc(=O)n(-c3c(C4CC4)ncnc3C3CC3)c3nc(-c4c(N)cccc4F)c(Cl)cc23)[C@@H](C)C1 [Compound 124]"
  Tested system: "Lung cancer cell line NCI-H358 containing KRas G12C mutation"
  IC50 [nM]: 2.4
- Compound: "C=CC(=O)N1C[C@H](C)N(c2nc(=O)n(-c3c(C4CC4)nc(N4CCN(C)CC4)nc3C3CC3)c3nc(-c4ccccc4F)c(F)cc23)C[C@H]1C [Compound 103]"
  Tested system: "Lung cancer cell line NCI-H358 containing KRas G12C mutation"
  IC50 [nM]: 47.6
- Compound: "C=CC(=O)N1CCN(c2nc(=O)n(-c3c(C4CC4)ncnc3C3CC3)c3nc(-c4ccccc4F)c(Cl)cc23)[C@@H](C)C1 [Compound 1]"
  Tested system: "Lung cancer cell line NCI-H358 containing KRas G12C mutation"
  IC50 [nM]: 10
- Compound: "C[C@H]1CN(C(=O)/C=C/CN2CC(F)C2)CCN1c1nc(=O)n(-c2c(C3CC3)ncnc2C2CC2)c2nc(-c3c(N)cccc3F)c(Cl)cc12 [Compound 120]"
  Tested system: "Lung cancer cell line NCI-H358 containing KRas G12C mutation"
  IC50 [nM]: 146
- Compound: "C=CC(=O)N1CCN(c2nc(=O)n(-c3c(C(C)C)nc4c(ncn4C)c3C)c3nc(-c4ccccc4F)c(F)cc23)[C@@H](C)C1 [Compound 73]"
  Tested system: "Lung cancer cell line NCI-H358 containing KRas G12C mutation"
  IC50 [nM]: 66
- Compound: "C=CC(=O)N1C[C@H](C)N(c2nc(=O)n(-c3c(C4CC4)nc(OC)nc3C3CC3)c3nc(-c4c(N)cccc4F)c(F)cc23)C[C@H]1C [Compound 80]"
  Tested system: "Lung cancer cell line NCI-H358 containing KRas G12C mutation"
  IC50 [nM]: 8.1
- Compound: "C=CC(=O)N1CCN(c2nc(=O)n(-c3c(C(C)C)nc(N)nc3C(C)C)c3nc(-c4c(O)cccc4F)c(Cl)cc23)[C@@H](C)C1 [Compound 106]"
  Tested system: "Lung cancer cell line NCI-H358 containing KRas G12C mutation"
  IC50 [nM]: 10.2
- Compound: "C=CC(=O)N1CCN(c2nc(=O)n(-c3c(C4CC4)nc(NCCN(C)C)nc3C3CC3)c3nc(-c4ccccc4F)c(F)cc23)[C@@H](C)C1 [Compound 33]"
  Tested system: "Lung cancer cell line NCI-H358 containing KRas G12C mutation"
  IC50 [nM]: 67.5
- Compound: "C=CC(=O)N1C[C@H](C)N(c2nc(=O)n(-c3c(C4CC4)nc(OC)nc3C3CC3)c3nc(-c4c(O)cccc4F)c(F)cc23)C[C@H]1C [Compound 79]"
  Tested system: "Lung cancer cell line NCI-H358 containing KRas G12C mutation"
  IC50 [nM]: 12.9
